- Test system: U2OS
- methodNotes: Multiplex assay against U2OS
- Type: toxicity, cell-based
- statedConditions: human, 48 h, 10 µM, compound concentration 10 uM, replicate 2
Below, each of the compounds is paired with its reported Population Hoechst High Intensity Objects (%) value.
parameter: Population Hoechst High Intensity Objects (%)

{"compound": "Cc1onc(-c2ccccc2Cl)c1C(=O)N(C)c1ccc(Cl)cc1", "unitText": "%", "measured": 2}
{"compound": "Cl.N=C(N)NC(=O)Cc1c(Cl)cccc1Cl [GUANFACINE HYDROCHLORIDE]", "unitText": "%", "measured": 1}
{"compound": "CC(=O)Nc1cccc2c1c(Sc1ccc(Cl)cc1)c(C)n2CC(=O)O [AZD1981]", "unitText": "%", "measured": 1}
{"compound": "CC(C)COc1ccc(CNC(=O)N(Cc2ccc(F)cc2)C2CCN(C)CC2)cc1 [PIMAVANSERIN]", "unitText": "%", "measured": 8}
{"compound": "COC[C@@H](c1ccc(C(F)(F)F)cc1)N1CCN(C2(C)CCN(C(=O)c3c(C)ncnc3C)CC2)C[C@@H]1C.O=C(O)/C=C\\C(=O)O [VICRIVIROC MALEATE]", "unitText": "%", "measured": 5}
{"compound": "COc1ccccc1N1CCN(C[C@@H](C(=O)NC(C)(C)C)c2ccccc2)CC1.Cl.Cl", "unitText": "%", "measured": 8}
{"compound": "Cc1c(CC(=O)O)c2cccnc2n1Cc1ccc(S(C)(=O)=O)cc1C(F)(F)F [FEVIPIPRANT]", "unitText": "%", "measured": 3}
{"compound": "CCCCCC(O)/C=C/[C@H]1C(=O)CC(O)C1C/C=C\\CCCC(=O)O (some centres not stated)", "unitText": "%", "measured": 2}
{"compound": "Cc1sc2c(c1C)C(c1ccc(Cl)cc1)=N[C@@H](CC(=O)NCCCCCCCCNC(=O)COc1cccc3c1C(=O)N(C1CCC(=O)NC1=O)C3=O)c1nnc(C)n1-2 (some centres not stated)", "unitText": "%", "measured": 2}
{"compound": "CN[C@@H](C)C(=O)N[C@H](C(=O)N1CCC[C@H]1C(=O)Nc1snnc1-c1ccccc1)C1CCCCC1 [GDC-0152]", "unitText": "%", "measured": 14}
{"compound": "CC(C)c1noc(N2CCC(COc3ccc(-c4ccc(S(C)(=O)=O)cc4)nc3)CC2)n1 [GSK-1292263]", "unitText": "%", "measured": 1}
{"compound": "Cc1cnc(-c2cc(N3CCN(C(=O)CCS(C)(=O)=O)CC3)ncc2Cl)c(C)c1", "unitText": "%", "measured": 3}
{"compound": "Cl.NCCc1ccc(O)c(O)c1 [DOPAMINE HYDROCHLORIDE]", "unitText": "%", "measured": 1}
{"compound": "CC(C)(C)c1cc(NC(=O)Nc2ccc(-c3cn4c(n3)sc3cc(OCCN5CCOCC5)ccc34)cc2)no1 [QUIZARTINIB]", "unitText": "%", "measured": 5}
{"compound": "O=C(CCCc1ccccc1)Nc1nc2ccccc2c(=O)s1", "unitText": "%", "measured": 0}
{"compound": "O=C(NCCN1CCC(n2c(=O)[nH]c3cc(Cl)ccc32)CC1)c1ccc(F)cc1 [HALOPEMIDE]", "unitText": "%", "measured": 6}
{"compound": "CCCOc1ccc2[nH]cc(C3=CCNCC3)c2n1.Cl", "unitText": "%", "measured": 0}

====

Recorded Population Pyknosed Nuclei (%) for the following compounds
- Test system: U2OS
- methodNotes: Multiplex assay against U2OS
- Format: toxicity, cell-based
- statedConditions: human, 12 h, 10 µM, compound concentration 10 uM, replicate 2
parameter: Population Pyknosed Nuclei (%)

{"compound": "O=C(NCCN1CCC(n2c(=O)[nH]c3cc(Cl)ccc32)CC1)c1ccc(F)cc1 [HALOPEMIDE]", "parameter": "Population Pyknosed Nuclei (%)", "measured": "8%"}
{"compound": "CC(C)COc1ccc(CNC(=O)N(Cc2ccc(F)cc2)C2CCN(C)CC2)cc1 [PIMAVANSERIN]", "parameter": "Population Pyknosed Nuclei (%)", "measured": "26%"}
{"compound": "CCCCC(=O)N(Cc1ccc(-c2ccccc2-c2nnn[nH]2)cc1)[C@H](C(=O)O)C(C)C", "parameter": "Population Pyknosed Nuclei (%)", "measured": "3%"}
{"compound": "CC(/C=C1\\SC(=S)N(CCCC(=O)Nc2ccc(C(=O)O)c(O)c2)C1=O)=C\\c1ccccc1", "parameter": "Population Pyknosed Nuclei (%)", "measured": "10%"}
{"compound": "Cc1cnc(-c2cc(N3CCN(C(=O)CCS(C)(=O)=O)CC3)ncc2Cl)c(C)c1", "parameter": "Population Pyknosed Nuclei (%)", "measured": "9%"}
{"compound": "CCc1cc2cc(NS(=O)(=O)c3ccc(C#N)cc3)ccc2n(CC)c1=O", "parameter": "Population Pyknosed Nuclei (%)", "measured": "5%"}
{"compound": "N#Cc1c(Oc2cccc(OS(=O)(=O)CCCC(F)(F)F)c2)cccc1C(F)(F)F", "parameter": "Population Pyknosed Nuclei (%)", "measured": "9%"}
{"compound": "CC(C)c1noc(N2CCC(COc3ccc(-c4ccc(S(C)(=O)=O)cc4)nc3)CC2)n1 [GSK-1292263]", "parameter": "Population Pyknosed Nuclei (%)", "measured": "5%"}
{"compound": "Cc1cccc(NC(=O)CN2CCC(c3ccccn3)CC2)c1.Cl.Cl", "parameter": "Population Pyknosed Nuclei (%)", "measured": "8%"}

====

- Test system: HEK-293T
- methodNotes: Multiplex assay against HEK293T
- Assay type: toxicity, cell-based
- statedConditions: human, 24 h, 1 µM, compound concentration 1 uM, replicate 2
parameter: Population Hoechst High Intensity Objects (%)

{"compound": "Cl.N=C(N)NC(=O)Cc1c(Cl)cccc1Cl [GUANFACINE HYDROCHLORIDE]", "testedSystem": "HEK-293T", "unitText": "%", "measured": 10}
{"compound": "CC(C)c1noc(N2CCC(COc3ccc(-c4ccc(S(C)(=O)=O)cc4)nc3)CC2)n1", "testedSystem": "HEK-293T", "unitText": "%", "measured": 3}
{"compound": "CCCOc1ccc2[nH]cc(C3=CCNCC3)c2n1.Cl", "testedSystem": "HEK-293T", "unitText": "%", "measured": 2}
{"compound": "CCCCCC(O)/C=C/[C@H]1C(=O)CC(O)C1C/C=C\\CCCC(=O)O (stereo not given in full)", "testedSystem": "HEK-293T", "unitText": "%", "measured": 7}
{"compound": "O=C(CCCc1ccccc1)Nc1nc2ccccc2c(=O)s1", "testedSystem": "HEK-293T", "unitText": "%", "measured": 8}

====

- System: Fibroblast
- methodNotes: Multiplex assay against human fibroblast
- Type: toxicity, cell-based
- statedConditions: 12 h, 10 µM, compound concentration 10 uM, replicate 1
We label by threshold. Values of Population Apoptotic (%) strictly beneath 40% are t. Values of 40% and up are f.

{"compoundStructureString": "CN(C)C(=O)Cn1cc(-c2ccc(-c3cncc4ccccc34)cc2)cn1", "discreteLabel": "t"}
{"compoundStructureString": "COc1ccccc1N1CCN(C[C@@H](C(=O)NC(C)(C)C)c2ccccc2)CC1.Cl.Cl", "discreteLabel": "f"}
{"compoundStructureString": "N#Cc1c(Oc2cccc(OS(=O)(=O)CCCC(F)(F)F)c2)cccc1C(F)(F)F", "discreteLabel": "t"}
{"compoundStructureString": "CN1CCN(c2cc(-c3ccccc3)nc(N)n2)CC1", "discreteLabel": "f"}
{"compoundStructureString": "O=C1[C@H](Cc2ccc(O)cc2)N2C(=O)CCN(C(=O)NCc3ccccc3)[C@H]2CN1Cc1cccc2ccccc12", "discreteLabel": "t"}
{"compoundStructureString": "CC(/C=C1\\SC(=S)N(CCCC(=O)Nc2ccc(C(=O)O)c(O)c2)C1=O)=C\\c1ccccc1", "discreteLabel": "f"}
{"compoundStructureString": "CCc1cc2cc(NS(=O)(=O)c3ccc(C#N)cc3)ccc2n(CC)c1=O", "discreteLabel": "f"}

====

- Test system: U2OS
- methodNotes: Multiplex assay against U2OS
- Format: toxicity, cell-based
- statedConditions: human, 24 h, 1 µM, compound concentration 1 uM, replicate 2
Listed next: entries and their corresponding Population Fragmented Nuclei (%).

{"compound": "CCCCC1=NC2(CCCC2)C(=O)N1Cc1ccc(-c2ccccc2-c2nnn[nH]2)cc1", "Population Fragmented Nuclei (%)": 12}
{"compound": "CCCOc1ccc2[nH]cc(C3=CCNCC3)c2n1.Cl", "Population Fragmented Nuclei (%)": 18}
{"compound": "Cc1cccc(NC(=O)CN2CCC(c3ccccn3)CC2)c1.Cl.Cl", "Population Fragmented Nuclei (%)": 21}
{"compound": "N#Cc1cc(F)cc(-c2nc(-c3ccc(F)cn3)no2)c1", "Population Fragmented Nuclei (%)": 8}
{"compound": "CC(C)(C)c1cc(NC(=O)Nc2ccc(-c3cn4c(n3)sc3cc(OCCN5CCOCC5)ccc34)cc2)no1", "Population Fragmented Nuclei (%)": 15}
{"compound": "Cc1onc(-c2ccccc2Cl)c1C(=O)N(C)c1ccc(Cl)cc1", "Population Fragmented Nuclei (%)": 11}
{"compound": "NCCc1cn(S(=O)(=O)c2c(Cl)nc3sccn23)c2ccccc12.O=C(O)C(=O)O", "Population Fragmented Nuclei (%)": 20}
{"compound": "COC[C@@H](c1ccc(C(F)(F)F)cc1)N1CCN(C2(C)CCN(C(=O)c3c(C)ncnc3C)CC2)C[C@@H]1C.O=C(O)/C=C\\C(=O)O [VICRIVIROC MALEATE]", "Population Fragmented Nuclei (%)": 20}
{"compound": "CC[C@@H](C)Nc1nc(C)nc2c(-c3ccc(OC)nc3C)c(C)nn12", "Population Fragmented Nuclei (%)": 16}
{"compound": "N#Cc1c(Oc2cccc(OS(=O)(=O)CCCC(F)(F)F)c2)cccc1C(F)(F)F", "Population Fragmented Nuclei (%)": 12}
{"compound": "Cc1c(CC(=O)O)c2cccnc2n1Cc1ccc(S(C)(=O)=O)cc1C(F)(F)F", "Population Fragmented Nuclei (%)": 17}
{"compound": "Cl.NCCc1ccc(O)c(O)c1 [DOPAMINE HYDROCHLORIDE]", "Population Fragmented Nuclei (%)": 14}
{"compound": "COc1ccccc1N1CCN(C[C@@H](C(=O)NC(C)(C)C)c2ccccc2)CC1.Cl.Cl", "Population Fragmented Nuclei (%)": 16}
{"compound": "CN(C)C(=O)Cn1cc(-c2ccc(-c3cncc4ccccc34)cc2)cn1", "Population Fragmented Nuclei (%)": 15}
{"compound": "CCCCCC(O)/C=C/[C@H]1C(=O)CC(O)C1C/C=C\\CCCC(=O)O (some centres undefined)", "Population Fragmented Nuclei (%)": 16}
{"compound": "CCc1cc2cc(NS(=O)(=O)c3ccc(C#N)cc3)ccc2n(CC)c1=O", "Population Fragmented Nuclei (%)": 16}
{"compound": "CN1CCN(c2cc(-c3ccccc3)nc(N)n2)CC1", "Population Fragmented Nuclei (%)": 21}
{"compound": "CN[C@@H](C)C(=O)N[C@H](C(=O)N1CCC[C@H]1C(=O)Nc1snnc1-c1ccccc1)C1CCCCC1", "Population Fragmented Nuclei (%)": 34}
{"compound": "Br.CS(=O)(=O)Nc1c(O)ccc2c1CCCC2C1=NCCN1 (centres undefined)", "Population Fragmented Nuclei (%)": 14}

The measured values listed here are drawn from ChEMBL document CHEMBL5058577.
